system: Escherichia coli TOP10; assay: shrunken log2 fold change of peptide-encoding DNA abundance (4.5 h post-induction vs induction); higher = less antimicrobial activity (less host growth inhibition); details: time post-induction: 4.5 h; library: site-saturation at positions 5, 18, 19, 20
Tag: rule met if measured shrunken log2 fold change is not below 0.02, rule not met if it is.

Q. Is reported shrunken log2 fold change greater than or equal to 0.02 here: RRIRWRPPRLPRPRPRPMGWPRP
A. rule met

Q. Check if shrunken log2 fold change >= 0.02 (inclusive). Item: RRIRHRPPRLPRPRPRPDIGPRP
A. rule met

Q. Check this sequence for shrunken log2 fold change at or above 0.02: RRIRRRPPRLPRPRPRPHRIPRP
A. rule not met

Q. // inclusive: shrunken log2 fold change at least 0.02? input: RRIRSRPPRLPRPRPRPLELPRP
A. rule met

Q. Hello, I need to know if RRIRKRPPRLPRPRPRPGYYPRP has measured shrunken log2 fold change not below 0.02. Thanks!
A. rule not met

Q. Can RRIRGRPPRLPRPRPRPIRRPRP be said to have shrunken log2 fold change at or above 0.02?
A. rule met

Q. Please tell me: is the sequence RRIRMRPPRLPRPRPRPANEPRP at or over 0.02 in terms of shrunken log2 fold change?
A. rule met

Q. Given RRIRRRPPRLPRPRPRPRMMPRP , state whether its shrunken log2 fold change is at least 0.02.
A. rule met

Q. Dear colleague, could you confirm whether RRIRRRPPRLPRPRPRPHNEPRP has shrunken log2 fold change at or above 0.02?
A. rule not met

Q. Is the recorded value of shrunken log2 fold change equal to or greater than 0.02 for this sequence? RRIRHRPPRLPRPRPRPEPCPRP
A. rule met

Q. Identify whether the reported shrunken log2 fold change of the following sequence is 0.02 or greater: RRIRSRPPRLPRPRPRPKLIPRP
A. rule not met

Q. Exam item: decide whether the reported shrunken log2 fold change for RRIRPRPPRLPRPRPRPDDGPRP is at least 0.02.
A. rule not met

Q. Please tell me: is the sequence RRIRRRPPRLPRPRPRPEYFPRP at or over 0.02 in terms of shrunken log2 fold change?
A. rule met

Q. Hi team, for RRIRNRPPRLPRPRPRPIPEPRP , is the recorded shrunken log2 fold change at or above 0.02?
A. rule not met

Q. Test whether the sequence RRIRIRPPRLPRPRPRPQLAPRP records shrunken log2 fold change of 0.02 or higher.
A. rule not met

Q. Could you tell me if the measured shrunken log2 fold change of RRIRCRPPRLPRPRPRPDQEPRP reaches 0.02 or more?
A. rule met

Q. Given RRIRKRPPRLPRPRPRPYMNPRP , state whether its shrunken log2 fold change is at least 0.02.
A. rule not met

Q. Say whether RRIRTRPPRLPRPRPRPYLSPRP shows shrunken log2 fold change of 0.02 or more.
A. rule not met

Q. Determine whether this sequence has shrunken log2 fold change no lower than 0.02: RRIRCRPPRLPRPRPRPVCKPRP
A. rule not met

Q. Identify whether the reported shrunken log2 fold change of the following sequence is 0.02 or greater: RRIRTRPPRLPRPRPRPHEEPRP
A. rule not met

Q. Reported shrunken log2 fold change at or above 0.02? RRIRARPPRLPRPRPRPIYWPRP
A. rule not met

Q. Is reported shrunken log2 fold change greater than or equal to 0.02 here: RRIRTRPPRLPRPRPRPAECPRP
A. rule not met

Q. Decide: shrunken log2 fold change of RRIRARPPRLPRPRPRPWKAPRP >= 0.02?
A. rule not met

Q. Textbook exercise: given the entry RRIRGRPPRLPRPRPRPWMQPRP , state whether its shrunken log2 fold change is greater than or equal to 0.02.
A. rule not met

Q. Threshold query (shrunken log2 fold change >= 0.02) on RRIRARPPRLPRPRPRPWYPPRP
A. rule not met

Q. Entry RRIRIRPPRLPRPRPRPGAMPRP : is its shrunken log2 fold change no less than 0.02?
A. rule met

Q. // inclusive: shrunken log2 fold change at least 0.02? input: RRIRHRPPRLPRPRPRPSGEPRP
A. rule not met

Q. Does the sequence RRIRCRPPRLPRPRPRPQIIPRP have recorded shrunken log2 fold change that is 0.02 or more?
A. rule not met

Q. I'd appreciate it if you could say whether RRIRGRPPRLPRPRPRPVFRPRP has shrunken log2 fold change at least equal to 0.02.
A. rule met

Q. Could you tell me if the measured shrunken log2 fold change of RRIRFRPPRLPRPRPRPKITPRP reaches 0.02 or more?
A. rule not met

Q. Could you verify whether the entry RRIRPRPPRLPRPRPRPMKYPRP shows shrunken log2 fold change of no less than 0.02?
A. rule not met

Q. Determine whether this sequence has shrunken log2 fold change no lower than 0.02: RRIRNRPPRLPRPRPRPRVLPRP
A. rule met

----------
test system: Escherichia coli TOP10; test: shrunken log2 fold change of peptide-encoding DNA abundance (4.5 h post-induction vs induction); higher = less antimicrobial activity (less host growth inhibition); conditions: time post-induction: 4.5 h; library: site-saturation at positions 5, 18, 19, 20;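 note: peptides expressed intracellularly from a pBAD plasmid library in pooled LB shake-flask culture, induced with 0.3% L-arabinose, DNA abundance read by NGS, three biological replicates, DESeq2 with apeglm shrinkage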
ENDPOINT_NAME: shrunken log2 fold change
Please state the value as a number alone, without comment.

Q. // lookup shrunken log2 fold change for RRIRDRPPRLPRPRPRPMGLPRP
A. -0.00663

Q. Form field: reported shrunken log2 fold change of RRIRWRPPRLPRPRPRPPRKPRP
A. 0.731

Q. # lookup: shrunken log2 fold change of RRIRMRPPRLPRPRPRPQWCPRP
A. -0.0474

Q. Reported shrunken log2 fold change, sequence RRIRIRPPRLPRPRPRPATIPRP : ____
A. -0.201

Q. Suppose we examine the sequence RRIRDRPPRLPRPRPRPMGKPRP ; what shrunken log2 fold change value has been reported?
A. 3.67

Q. Requested read-out: shrunken log2 fold change. Entry: RRIRSRPPRLPRPRPRPFAAPRP
A. 0.355

Q. shrunken log2 fold change lookup needed for RRIRYRPPRLPRPRPRPFIGPRP , thanks.
A. -1.58

Q. Endpoint output: shrunken log2 fold change of RRIRKRPPRLPRPRPRPWTTPRP . Value?
A. -0.0228

Q. Name the reported shrunken log2 fold change value associated with the sequence RRIRDRPPRLPRPRPRPGFKPRP
A. 0.0624

Q. Request the reported shrunken log2 fold change associated with RRIRSRPPRLPRPRPRPLVHPRP
A. -0.253

Q. shrunken log2 fold change for RRIRFRPPRLPRPRPRPDSFPRP ?
A. -0.00668

Q. Which shrunken log2 fold change reading was recorded for the sequence RRIRNRPPRLPRPRPRPQCTPRP ?
A. -0.123

Q. Fill blank: measured shrunken log2 fold change of the sequence RRIRFRPPRLPRPRPRPSCKPRP is ____.
A. -0.901

Q. If you can, please state the reported shrunken log2 fold change value of RRIRWRPPRLPRPRPRPAFGPRP .
A. 0.53

Q. Entry under review: RRIRLRPPRLPRPRPRPIFQPRP . Reported shrunken log2 fold change?
A. -0.192

Q. Name the recorded shrunken log2 fold change for RRIRVRPPRLPRPRPRPPNTPRP .
A. -0.0576

Q. Returns the measured shrunken log2 fold change for the input sequence. Input: RRIRLRPPRLPRPRPRPRTAPRP
A. 0.482

Q. What measured shrunken log2 fold change goes with RRIRRRPPRLPRPRPRPWMNPRP ?
A. -0.0882

Q. I'd like to know its shrunken log2 fold change. The sequence in question is RRIRVRPPRLPRPRPRPFDHPRP
A. -0.557

Q. Can you share its shrunken log2 fold change? I mean this sequence: RRIRFRPPRLPRPRPRPDGIPRP
A. -0.255

Q. For the sequence RRIRTRPPRLPRPRPRPRNDPRP , what shrunken log2 fold change is on record?
A. -0.227

Q. Look up shrunken log2 fold change: RRIRARPPRLPRPRPRPKNPPRP
A. 0.196

Q. # shrunken log2 fold change lookup, item RRIRIRPPRLPRPRPRPMDYPRP
A. -0.00141

Q. // query shrunken log2 fold change value for entry RRIRARPPRLPRPRPRPWEHPRP
A. -0.0255

Q. Tell me the measured shrunken log2 fold change of RRIRGRPPRLPRPRPRPTTCPRP , please.
A. 0.849

Q. Record request: shrunken log2 fold change value, item RRIRKRPPRLPRPRPRPYPFPRP
A. 0.00884

Q. I would be grateful if you could share the reported shrunken log2 fold change for RRIRERPPRLPRPRPRPWPTPRP .
A. 0.549

Q. Dear colleague, I am looking for the recorded shrunken log2 fold change of the following sequence: RRIRTRPPRLPRPRPRPHTAPRP
A. -0.0446

Q. Name the reported shrunken log2 fold change value associated with the sequence RRIRYRPPRLPRPRPRPFFDPRP
A. 1.09

Q. Can you look up the measured shrunken log2 fold change of RRIRGRPPRLPRPRPRPNRNPRP for me?
A. 0.00949

Q. Which shrunken log2 fold change value belongs to RRIRSRPPRLPRPRPRPWDRPRP ?
A. -0.0645

Q. // returns reported shrunken log2 fold change for input RRIRCRPPRLPRPRPRPFEFPRP
A. 0.0705
